meta.source: PubChem BioAssay (NCI)

Field: TGI. Provide a value for each of the compounds that follow.
Test system: SN12C renal
ASSAY METHOD TEXT: NCI tumour cell line growth inhibition, 48 h

Look at this compound and give its reported TGI. `NCCP(=O)(O)O`
> 100 µM

Also check `CCCCCOC(=O)c1cc2cc(CCl)ccc2oc1=O`
28.1 µM

Also, CCOC(=O)CCC(NC(=O)c1ccc(Nc2cnc3ccc(C(F)(F)F)cc3n2)cc1)C(=O)OCC (stereo not given) please.
> 100 µM

Further, for CC1CN=C(NS(=O)(=O)c2cc(C(=O)Nc3ccc(F)cc3)c(Cl)cc2S)NN1 (stereo not given) ?
> 100 µM

Another compound to look at: `O=C(O)/C(=C\c1ccccc1Cl)S(=O)(=O)c1ccccc1`
> 100 µM

Ok, now COc1cccc(NC(=O)CC(=O)N2N=C(C)C(N=Nc3ccc(S(=O)(=O)CCOS(=O)(=O)O)cc3)C2=O)c1 (stereo not given)
20.1 µM

Now try `CC(C)(C)OC(=O)CN1CCc2c(sc3ncnc(N/N=C/c4cccc5ccccc45)c23)C1` .
9.04 µM

Then O=C(O)c1cc(O)c2c(c1)C([C@@H]1c3cccc(O)c3C(=O)c3c(O)cc(C(=O)O)cc31)c1cccc(O)c1C2=O (stereo not given in full) ?
> 100 µM

`CC(=O)/C=C/C1=C(c2cccs2)c2ccccc2CC1` ?
48.5 µM

Follow-up entry: `COc1ccc(C(=O)N(C(=O)N2CCN(c3ccccc3)CC2)S(=O)(=O)c2ccccc2)cc1`
55.9 µM

Try `COc1cc2c(cc1OCCCCCCCCN1C(=O)c3cccc4cccc(c34)C1=O)N=C[C@@H]1CCCN1C2=O` next.
63.9 µM

And for `Cc1ccc2c(c1)O/C(=C\c1ccc([N+](=O)[O-])o1)C2=O` ?
4.96 µM

Next: `CCOP(=O)(OCC)[C@]12C[C@@H](C)C=C[C@H]1COC2=O`
> 100 µM

Now try COc1ccc(CC(NC(=O)[C@H](C)NC(=O)CN2CCOCC2)C(=O)N[C@@H](Cc2ccccc2)C(=O)[C@@]2(C)CO2)cc1 (stereo not given in full) .
1.53 µM

Lookup `CCCCCCCCCCCCn1[nH]c(C)c(C(=S)SCCCCCCCC)c1=O`
> 100 µM

Then `CC(=O)Oc1ccc(CO)cc1OC(C)=O` ?
> 100 µM

Record: `COc1ccc(CCNC(=O)CCc2ccccc2CO)cc1OC`
> 100 µM

Again, but for `COc1cc2c(cc1C)NC(=O)/C2=C/c1c(Cl)n(-c2ccccc2)c2ccccc12`
23.6 µM

Another compound to check: `CC1(C)CCCOc2cccc(c2)OCCCC(C)(C)C1=O`
> 100 µM

Another compound to look at: CCc1cccc(C(C)CC)c1NC(=O)C(=O)C(CC(=O)Nc1ccc(Cl)c(Cl)c1)C(=O)OC (stereo not given)
> 100 µM
